# PROTOCOL DETAILS: Stability of compounds in aqueous solution
# Format: physicochemical
# PROTOCOL CONDITIONS: compound dissolved in aqueous solution, maintained at 40° C. for 7 days; in %
MEASUREMENT NAME: stability, 40° C./ 7 days

- COMPOUND: "O=C(Oc1ccc(CN2CCOCC2)cc1)c1ccc(CCC[C@@H]2[C@@H](CCc3cc(Cl)cc(Cl)c3)[C@H](O)C[C@H]2Cl)s1 [Compound 3]"
  MEASUREMENT NAME: "stability, 40° C./ 7 days"
  EXPERIMENTAL RESULT: 91.7

I. CC(CN(C)C)OC(=O)c1ccc(CCC[C@@H]2[C@@H](CCc3cc(Cl)cc(Cl)c3)[C@H](O)C[C@H]2Cl)s1 (some centres unmarked) [Compound 7]
II. CC[N+](C)(CC)CCCOC(=O)c1ccc(CCC[C@@H]2[C@@H](CCc3cc(Cl)cc(Cl)c3)[C@H](O)C[C@H]2Cl)s1 [Compound 9]
Input: Between I and II , which one shows the larger stability, 40° C./ 7 days value? Answer by stating the label of the chosen item.
Output: II

====

# PROTOCOL DETAILS: Stability of compounds in aqueous solution
# Assay type: physicochemical
# PROTOCOL CONDITIONS: compound dissolved in aqueous solution, maintained at 40° C. for 7 days; in %
MEASUREMENT NAME: stability, 40° C./ 7 days

- SMILES RECORD: "O=C(OCCCN1CCOCC1)c1ccc(CCC[C@@H]2[C@@H](CCc3cc(Cl)cc(Cl)c3)[C@H](O)C[C@H]2Cl)s1"
  stability, 40° C./ 7 days: 98.0
- SMILES RECORD: "CN(C)c1ccc(OC(=O)c2ccc(CCC[C@@H]3[C@@H](CCc4cc(Cl)cc(Cl)c4)[C@H](O)C[C@H]3Cl)s2)cc1"
  stability, 40° C./ 7 days: 96.0
- SMILES RECORD: "CN(C)Cc1ccc(OC(=O)c2ccc(CCC[C@@H]3[C@@H](CCc4cc(Cl)cc(Cl)c4)[C@H](O)C[C@H]3Cl)s2)cc1"
  stability, 40° C./ 7 days: 78.0

====

# PROTOCOL DETAILS: Stability of compounds in aqueous solution
# Type: physicochemical
# PROTOCOL CONDITIONS: compound dissolved in aqueous solution, maintained at 25° C. for 7 days; in %
# Protocol: In some embodiments the stability of the compound is such that, when stored in an aqueous solution at 25° C. for 7 days or 14 days, at least about 70%, at least about 80%, at least about 90%, at least about 95%, at least about 97%, at least about 99% of the original compound, and up to about 100% of the original compound remains in the solution. […]
MEASUREMENT NAME: stability, 25° C./ 7 days

- MOLECULE: "CC(CN(C)C)OC(=O)c1ccc(CCC[C@@H]2[C@@H](CCc3cc(Cl)cc(Cl)c3)[C@H](O)C[C@H]2Cl)s1 (some centres unmarked)"
  stability, 25° C./ 7 days: 94.3
- MOLECULE: "O=C(OCCCN1CCOCC1)c1ccc(CCC[C@@H]2[C@@H](CCc3cc(Cl)cc(Cl)c3)[C@H](O)C[C@H]2Cl)s1"
  stability, 25° C./ 7 days: 103.0
- MOLECULE: "CC[N+](C)(CC)CCCOC(=O)c1ccc(CCC[C@@H]2[C@@H](CCc3cc(Cl)cc(Cl)c3)[C@H](O)C[C@H]2Cl)s1"
  stability, 25° C./ 7 days: 100.5
- MOLECULE: "CC(CCN1CCOCC1)OC(=O)c1ccc(CCC[C@@H]2[C@@H](CCc3cc(Cl)cc(Cl)c3)[C@H](O)C[C@H]2Cl)s1 (some centres unmarked)"
  stability, 25° C./ 7 days: 98.5
- MOLECULE: "O=C(Oc1ccc(CN2CCOCC2)cc1)c1ccc(CCC[C@@H]2[C@@H](CCc3cc(Cl)cc(Cl)c3)[C@H](O)C[C@H]2Cl)s1"
  stability, 25° C./ 7 days: 97.3
- MOLECULE: "CCN(CC)CCOC(=O)c1ccc(CCC[C@@H]2[C@@H](CCc3cc(Cl)cc(Cl)c3)[C@H](O)C[C@H]2Cl)s1"
  stability, 25° C./ 7 days: 95.8
- MOLECULE: "CN(C)Cc1ccc(OC(=O)c2ccc(CCC[C@@H]3[C@@H](CCc4cc(Cl)cc(Cl)c4)[C@H](O)C[C@H]3Cl)s2)cc1"
  stability, 25° C./ 7 days: 96.4
- MOLECULE: "CN(C)c1ccc(OC(=O)c2ccc(CCC[C@@H]3[C@@H](CCc4cc(Cl)cc(Cl)c4)[C@H](O)C[C@H]3Cl)s2)cc1"
  stability, 25° C./ 7 days: 98.7

====

# PROTOCOL DETAILS: Stability of compounds in aqueous solution
# Assay type: physicochemical
# PROTOCOL CONDITIONS: compound dissolved in aqueous solution, maintained at 25° C. for 14 days; in %
# Protocol: In some embodiments the stability of the compound is such that, when stored in an aqueous solution at 25° C. for 7 days or 14 days, at least about 70%, at least about 80%, at least about 90%, at least about 95%, at least about 97%, at least about 99% of the original compound, and up to about 100% of the original compound remains in the solution. […]
MEASUREMENT NAME: stability, 25° C./ 14 days

- COMPOUND: "CC(CN(C)C)OC(=O)c1ccc(CCC[C@@H]2[C@@H](CCc3cc(Cl)cc(Cl)c3)[C@H](O)C[C@H]2Cl)s1 (some centres unmarked)"
  stability, 25° C./ 14 days: 78.5
- COMPOUND: "CC[N+](C)(CC)CCCOC(=O)c1ccc(CCC[C@@H]2[C@@H](CCc3cc(Cl)cc(Cl)c3)[C@H](O)C[C@H]2Cl)s1"
  stability, 25° C./ 14 days: 101.1
- COMPOUND: "O=C(OCCCN1CCOCC1)c1ccc(CCC[C@@H]2[C@@H](CCc3cc(Cl)cc(Cl)c3)[C@H](O)C[C@H]2Cl)s1"
  stability, 25° C./ 14 days: 102.9
- COMPOUND: "O=C(Oc1ccc(CN2CCOCC2)cc1)c1ccc(CCC[C@@H]2[C@@H](CCc3cc(Cl)cc(Cl)c3)[C@H](O)C[C@H]2Cl)s1"
  stability, 25° C./ 14 days: 97.3
- COMPOUND: "CCN(CC)CCOC(=O)c1ccc(CCC[C@@H]2[C@@H](CCc3cc(Cl)cc(Cl)c3)[C@H](O)C[C@H]2Cl)s1"
  stability, 25° C./ 14 days: 84.6
- COMPOUND: "CC(CCN1CCOCC1)OC(=O)c1ccc(CCC[C@@H]2[C@@H](CCc3cc(Cl)cc(Cl)c3)[C@H](O)C[C@H]2Cl)s1 (some centres unmarked)"
  stability, 25° C./ 14 days: 95.4
- COMPOUND: "CN(C)Cc1ccc(OC(=O)c2ccc(CCC[C@@H]3[C@@H](CCc4cc(Cl)cc(Cl)c4)[C@H](O)C[C@H]3Cl)s2)cc1"
  stability, 25° C./ 14 days: 95.2
- COMPOUND: "CN(C)c1ccc(OC(=O)c2ccc(CCC[C@@H]3[C@@H](CCc4cc(Cl)cc(Cl)c4)[C@H](O)C[C@H]3Cl)s2)cc1"
  stability, 25° C./ 14 days: 100.2
